# test-details: in vitro
# Type: cell-based
# condition-notes: human, HepG2 cells; 3 µM; percent of cell viability vs DMSO-treated control; read-out: HepG2 cell viability
Can you tell me viability at 3 µM for the items I'm about to list?
Numbers only, in %.

Worked cases, viability at 3 µM given:
Read off the recorded viability at 3 µM for Nc1c2c(nc3c1C(c1cccc(F)c1)c1oc(CO)cc(=O)c1O3)CCCC2 (stereo not drawn)
96.5

Complete the entry with viability at 3 µM for Cc1ccc(C2c3oc(CO)cc(=O)c3Oc3nc4c(c(N)c32)CCCC4)cc1 (stereo not drawn)
110

Attention now shifts to the item below.
Identify measured viability at 3 µM associated with Nc1c2c(nc3c1C(c1ccccc1Cl)c1oc(CO)cc(=O)c1O3)CCCC2 (stereo not drawn)
100
